For each of the compounds below, state its IC50.
Tested on: L1210
Experiment: Cytotoxicity against Mus musculus (mouse) L1210 cells after 72 hr
Assay type: functional, cell-based
Conditions: L1210, 72 h
The answer is to be given in µM; state only the numeric part.

Given item Cn1cc(NC(=O)c2cc(NC(=O)c3cc(N(CC4CO4)CC4CO4)cn3C)cn2C)cc1C(=O)NCC/C(N)=N/C#N (centres undefined) , the value recorded as its IC50 is 6.3

The reported IC50 of the compound Cl.Cl.Cn1cc(NC(=O)c2cc(NC(=O)c3cc(NC=O)cn3C)cn2C)cc1C(=O)NCCC(=N)N was 50

Input CNC(=O)CCNC(=O)c1cc(NC(=O)c2cc(NC(=O)c3cc(N(CC4CO4)CC4CO4)cn3C)cn2C)cn1C (centres undefined) . Output IC50: 38

----------
Tested on: K562
Experiment: Cytotoxicity against Homo sapiens (human) K562 cells after 72 hr
Format: functional, cell-based
Settings: K562, 72 h
measured attribute: IC50 (µM)
Respond numerically; units are µM and should not be typed.

So for Cn1cc(NC(=O)c2cc(NC(=O)c3cc(N(CC4CO4)CC4CO4)cn3C)cn2C)cc1C(=O)NCCC(N)=O (centres undefined) , the logged IC50 turned out to be 25

Value of measured IC50 for the entry Cl.Cl.Cn1cc(NC(=O)c2cc(NC(=O)c3cc(NC=O)cn3C)cn2C)cc1C(=O)NCCC(=N)N : 10

Memo: CNC(=O)CCNC(=O)c1cc(NC(=O)c2cc(NC(=O)c3cc(N(CC4CO4)CC4CO4)cn3C)cn2C)cn1C (centres undefined) , reported IC50: 25

IC50 measured on Cn1cc(NC(=O)c2cc(NC(=O)c3cc(N(CC4CO4)CC4CO4)cn3C)cn2C)cc1C(=O)NCC/C(N)=N/O (centres undefined) = 12

Value of measured IC50 for the entry Cn1cc(NC(=O)c2cc(NC(=O)c3cc(N(CC4CO4)CC4CO4)cn3C)cn2C)cc1C(=O)NCC/C(N)=N/C#N (centres undefined) : 1

The reported value for Cn1cc(NC(=O)c2cc(NC(=O)c3cc(N)cn3C)cn2C)cc1C(=O)NCCC(N)=O in terms of IC50 is 45

----------
System: L1210
Assay: Cytotoxicity against Mus musculus (mouse) L1210 cells after 72 hr
Type: functional, cell-based
Settings: L1210, 72 h
measured attribute: IC50 (µM)
A number alone suffices; assume µM.

Kindly note: L1210, Cn1cc(NC(=O)c2cc(NC(=O)c3cc(N(CC4CO4)CC4CO4)cn3C)cn2C)cc1C(=O)NCC/C(N)=N/O (stereo not given) , IC50 value reported: 18

The measured IC50 that Cn1cc(NC(=O)c2cc(NC(=O)c3cc(N(CC4CO4)CC4CO4)cn3C)cn2C)cc1C(=O)NCCC(N)=O (stereo not given) showed for L1210 is 35

----------
System: K562
Test: Cytotoxicity against Homo sapiens (human) K562 cells after 72 hr
Type: functional, cell-based
Conditions: K562, 72 h
pIC50: −log10 of the molar value.
measured attribute: pIC50

Entry Cn1cc(NC(=O)c2cc(NC(=O)c3cc(N)cn3C)cn2C)cc1C(=O)NCC/C(N)=N/O , tested on K562, has a reported pIC50 of < 4.30

# CNC(=O)CCNC(=O)c1cc(NC(=O)c2cc(NC(=O)c3cc(N)cn3C)cn2C)cn1C with K562: pIC50 is < 4.30

Fill in: K562 pIC50 for Cn1cc(NC(=O)c2cc(NC(=O)c3cc(N)cn3C)cn2C)cc1C(=O)NCC/C(N)=N/C#N = < 4.30

----------
Test system: L1210
Assay: Cytotoxicity against Mus musculus (mouse) L1210 cells after 72 hr
Assay type: functional, cell-based
Details: L1210, 72 h
measured attribute: IC50

L1210 assay, compound CNC(=O)CCNC(=O)c1cc(NC(=O)c2cc(NC(=O)c3cc(N)cn3C)cn2C)cn1C , recorded IC50 = > 50 µM

The observed IC50 for Cn1cc(NC(=O)c2cc(NC(=O)c3cc(N)cn3C)cn2C)cc1C(=O)NCC/C(N)=N/O when tested with L1210 stands at > 50 µM

Here Cn1cc(NC(=O)c2cc(NC(=O)c3cc(N)cn3C)cn2C)cc1C(=O)NCC/C(N)=N/C#N was tested on L1210, and its IC50 came to > 50 µM

Data origin: ChEMBL document CHEMBL3046372
